- Organism: Oryctolagus cuniculus
- assay.overview: Inhibition of trypsin-like activity of rabbit reticulocyte 20S proteasome at 100 uM
endpoint: inhibition

chemical_string=CC(C)(C)OC(=O)N[C@@H](Cc1ccc(OCc2ccccc2)cc1)C(=O)N[C@@H](CC(N)=O)C(=O)N[C@@H](Cc1c[nH]c2ccccc12)C(=O)Nc1ccc(O)cc1 endpoint=inhibition result="< 20%"
chemical_string=COC(=O)[C@H](Cc1c[nH]c2c(Br)cccc12)NC(=O)[C@H](C)NC(=O)[C@H](Cc1ccc(OC)c(I)c1)NC(=O)OC(C)(C)C endpoint=inhibition result="< 20%"
chemical_string=CC(C)(C)OC(=O)N[C@@H](Cc1ccc(OCc2ccccc2)cc1)C(=O)N[C@@H](CCCN(C(=N)NC(=O)OCc1ccccc1)C(=O)OCc1ccccc1)C(=O)N[C@@H](Cc1c[nH]c2ccccc12)C(=O)Nc1ccc(O)cc1 endpoint=inhibition result="< 20%"

---

Quick reference: Fold change of the listed items.
- Species on record: Oryctolagus cuniculus
- assay.overview: Activation of trypsin-like activity of rabbit reticulocyte 20S proteasome relative to control
Residues, ends and D or L forms follow the SMILES beside them. *: point of attachment. Boc = CC(C)(C)OC(=O)*; NHBn = c1ccc(CN*)cc1; NHPh = c1ccc(N*)cc1; Bn = c1ccc(C*)cc1
endpoint: Fold change

molecule=C[C@H](NC(=O)[C@H](Cc1ccc(OCc2ccccc2)cc1)NC(=O)OC(C)(C)C)C(=O)N[C@@H](Cc1c[nH]c2ccccc12)C(=O)NCCCCNC(=O)OC(C)(C)C result=3.2
molecule="CC(C)C[C@H](NC(=O)[C@H](Cc1ccc(OCc2ccccc2)cc1)NC(=O)OC(C)(C)C)C(=O)N[C@@H](Cc1c[nH]c2ccccc12)C(=O)Nc1ccccc1 (Boc-Tyr(Bn)-Leu-Trp-NHPh)" result=1.9
molecule=COC(=O)[C@@H]1Cc2c[nH]c3c(cccc23)-c2ccc(cc2OCc2ccccc2)C[C@H](NC(=O)OC(C)(C)C)C(=O)N[C@@H](CC(C)C)C(=O)N1 result=1.4
molecule="CC(C)C[C@H](NC(=O)[C@H](Cc1ccc(OCc2ccccc2)cc1)NC(=O)OC(C)(C)C)C(=O)N[C@@H](Cc1c[nH]c2ccccc12)C(=O)NCc1ccccc1 (Boc-Tyr(Bn)-Leu-Trp-NHBn)" result=1.9
molecule="C[C@H](NC(=O)[C@H](Cc1ccc(OCc2ccccc2)cc1)NC(=O)OC(C)(C)C)C(=O)N[C@@H](Cc1c[nH]c2ccccc12)C(=O)O (Boc-Tyr(Bn)-Ala-Trp-OH)" result=1.5

---

- Species: Oryctolagus cuniculus
- assay.overview: Activation of trypsin-like activity of rabbit reticulocyte 20S proteasome relative to control
Residues, ends and D or L forms follow the SMILES beside them. *: point of attachment. Boc = CC(C)(C)OC(=O)*; NHBn = c1ccc(CN*)cc1; NHPh = c1ccc(N*)cc1; Bn = c1ccc(C*)cc1
endpoint: Fold change

compound="CC(C)(C)OC(=O)N[C@@H](Cc1ccc(OCc2ccccc2)cc1)C(=O)NCC(=O)N[C@@H](Cc1c[nH]c2ccccc12)C(=O)NCc1ccccc1 (Boc-Tyr(Bn)-Gly-Trp-NHBn)" endpoint="Fold change" result=1.7
compound=CC(C)C[C@H](NC(=O)[C@H](Cc1ccc(OCc2ccccc2)cc1)NC(=O)OC(C)(C)C)C(=O)N[C@@H](Cc1c[nH]c2ccccc12)C(=O)Nc1ccc(O)cc1 endpoint="Fold change" result=1.6
compound="CC(C)(C)OC(=O)N[C@@H](Cc1ccc(OCc2ccccc2)cc1)C(=O)N[C@@H](CC(N)=O)C(=O)N[C@@H](Cc1c[nH]c2ccccc12)C(=O)NCc1ccccc1 (Boc-Tyr(Bn)-Asn-Trp-NHBn)" endpoint="Fold change" result=2.2
compound=CC(C)C[C@H](NC(=O)[C@H](Cc1ccc(OCc2ccccc2)cc1)NC(=O)OC(C)(C)C)C(=O)N[C@@H](Cc1c[nH]c2ccccc12)C(=O)NCCCCNC(=O)OC(C)(C)C endpoint="Fold change" result=2.3
compound="CC(C)(C)OC(=O)NCCCC[C@H](NC(=O)[C@H](Cc1ccc(OCc2ccccc2)cc1)NC(=O)OC(C)(C)C)C(=O)N[C@@H](Cc1c[nH]c2ccccc12)C(=O)Nc1ccccc1 (Boc-Tyr(Bn)-Lys(Boc)-Trp-NHPh)" endpoint="Fold change" result=1.6
compound="C[C@H](NC(=O)[C@H](Cc1ccc(OCc2ccccc2)cc1)NC(=O)OC(C)(C)C)C(=O)N[C@@H](Cc1c[nH]c2ccccc12)C(=O)NCc1ccccc1 (Boc-Tyr(Bn)-Ala-Trp-NHBn)" endpoint="Fold change" result=1.7
